- experimental.protocol: LDH cell viability assay, normal prostate epithelial cells
- Format: cell-based, human
- condition: human, PNT2 normal prostate epithelial cells; PNT2, 50 µg/mL, 24 h; read-out: Cell Viability (%) ± SD
measurement.name: viability at 24 h, 50 µg/mL (%)
// note: answer is a bare numeric in %

Query: Tell me the measured viability at 24 h, 50 µg/mL of C=C1C(=O)O[C@H]2[C@H]1[C@@H](O)[C@H](OC(=O)CC(C)C)[C@H](C)CCC(=O)[C@](C)(O)[C@@H]2OC(=O)C(C)C , please.
Result: 3.29

* * *

- experimental.protocol: LDH cell viability assay, normal prostate epithelial cells
- Assay type: cell-based, human
- condition: human, PNT2 normal prostate epithelial cells; PNT2, 10 µg/mL, 24 h; read-out: Cell Viability (%) ± SD
measurement.name: viability at 24 h, 10 µg/mL

Query: Tell me the measured viability at 24 h, 10 µg/mL of C=C1C(=O)O[C@H]2[C@H]1[C@@H](O)[C@H](OC(=O)CC(C)C)[C@H](C)CCC(=O)[C@](C)(O)[C@@H]2OC(=O)C(C)C [Compound 3] , please.
Result: 52.8%
